Hello, the source for this data is paper PMC4336329, in case you need it.

As shown below, each of these compounds has a reported hERG current change (%, negative = inhibition) at 1uM value.
# assayTarget: human ether-à-go-go-related gene (hERG) potassium channel (human, UniProt Q12809)
# Sequence (Q12809 whole entry, looked up): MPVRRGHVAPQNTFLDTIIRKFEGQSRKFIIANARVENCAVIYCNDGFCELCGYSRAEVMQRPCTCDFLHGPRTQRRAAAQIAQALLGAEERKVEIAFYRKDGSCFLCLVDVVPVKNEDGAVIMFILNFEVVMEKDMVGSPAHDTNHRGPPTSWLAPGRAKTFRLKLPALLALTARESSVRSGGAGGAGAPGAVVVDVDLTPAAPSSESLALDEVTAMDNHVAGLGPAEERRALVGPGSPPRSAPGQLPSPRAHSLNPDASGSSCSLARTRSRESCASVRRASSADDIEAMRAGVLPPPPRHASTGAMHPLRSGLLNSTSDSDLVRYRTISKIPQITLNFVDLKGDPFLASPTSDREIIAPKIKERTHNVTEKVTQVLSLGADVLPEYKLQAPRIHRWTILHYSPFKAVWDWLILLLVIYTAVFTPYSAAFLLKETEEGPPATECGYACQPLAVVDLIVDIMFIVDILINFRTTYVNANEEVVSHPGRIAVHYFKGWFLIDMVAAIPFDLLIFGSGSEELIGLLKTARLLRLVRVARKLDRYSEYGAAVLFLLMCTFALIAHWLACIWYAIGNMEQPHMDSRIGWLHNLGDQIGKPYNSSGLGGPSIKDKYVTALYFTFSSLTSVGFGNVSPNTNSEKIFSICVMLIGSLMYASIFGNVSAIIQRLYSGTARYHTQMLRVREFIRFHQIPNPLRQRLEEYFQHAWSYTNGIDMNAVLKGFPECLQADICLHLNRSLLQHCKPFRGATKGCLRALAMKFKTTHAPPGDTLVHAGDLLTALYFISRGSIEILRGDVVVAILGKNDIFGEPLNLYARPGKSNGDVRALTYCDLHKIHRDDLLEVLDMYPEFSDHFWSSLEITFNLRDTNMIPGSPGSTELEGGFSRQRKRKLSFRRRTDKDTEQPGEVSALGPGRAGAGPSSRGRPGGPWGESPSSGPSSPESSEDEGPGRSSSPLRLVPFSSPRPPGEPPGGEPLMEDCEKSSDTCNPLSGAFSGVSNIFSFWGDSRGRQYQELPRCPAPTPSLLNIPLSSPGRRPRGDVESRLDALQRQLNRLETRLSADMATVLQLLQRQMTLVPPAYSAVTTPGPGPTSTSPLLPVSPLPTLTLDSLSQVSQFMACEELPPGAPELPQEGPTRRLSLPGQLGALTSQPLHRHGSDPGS
# assay: primary screen, population patch clamp on CHO cells stably expressing hERG; higher = less effect of the substance
The campaign covered roughly 310,000 compounds. About 2,200 (0.71%) showed an effect of 50% or more. The effect is printed as a negative number. The list comes from a sample in which strong results are over-represented; it also holds close analogues and randomly drawn compounds.
Report the value in % with no unit label.

Please review the following examples before continuing.
CC(C)(Oc1ccc(Cl)cc1)C(=O)N1CCN(c2ccccn2)CC1 : -1.81
N=c1c(C(=O)NCc2ccco2)cc2c(=O)n3ccccc3nc2n1CCc1ccccc1 : -84.2
N=c1c(S(=O)(=O)c2ccc(Br)cc2)cc2c(=O)n3ccccc3nc2n1Cc1ccco1 : 15.4
N#Cc1nc(Cc2ccccc2)oc1N1CCCC1 : 4.79
N/C(Cc1ccc([N+](=O)[O-])cc1)=N\OC(=O)c1ccc(Br)cc1 : -3.44

(Q) // returns reported hERG current change (%, negative = inhibition) at 1uM for input COc1ccc(CCNC(=O)c2ccc3c(=O)n(Cc4ccco4)c(=S)[nH]c3c2)cc1OC
(A) 13.6

(Q) // returns reported hERG current change (%, negative = inhibition) at 1uM for input CCOC(=O)c1sc(NC(=S)NC(=O)c2cccc(Cl)c2)c(C(=O)OCC)c1C
(A) 1.03
